Each recorded value in this set is attributed to paper PMC7956749.

Target Of Assay: T1, PAH1-FLAG (paired amphipathic helix 1 domain of Sin3B with a FLAG tag) (UniProt Q62141 31-107)
T1 chain: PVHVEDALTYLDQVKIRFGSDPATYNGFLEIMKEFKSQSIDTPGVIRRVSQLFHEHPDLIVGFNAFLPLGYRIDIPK
Assay Overview: SPR; well-used sensor chip (about 100 regenerations)
Where no end group is shown, it is not given here.
Readout Type: Kd (µM)
Just the number in µM, nothing appended.

*Q* Please look up its Kd: APQLIMLANVALTGE (also: biotin, site not given here) [biotinylated REST peptide (RE-1 silencing transcription factor, binding surface for Sin3B PAH1)]
*A* 1.69
